Each recorded value in this set is attributed to PubChem BioAssay AID2060600.

Tested on: 996289-038-R-J1-PDC complex spheroid viability
PROCEDURE_DETAILS: Anticancer human tumor 996289-038-R-J1-PDC patient-derived colon adenocarcinoma cell line growth inhibition [CLK]
ASSAY_CONDITIONS: second compound 10 µM; first compound 3.16 µM; active compounds read low
For each of the molecules below, state its viability, T/C.

So what viability, T/C did CC(Nc1ccc2c(c1)OCCn1cc(N3C(=O)OCC3C(F)F)nc1-2)C(N)=O (stereo unspecified) + CN1CCN(c2cc(C(=O)Nc3cc4cc(-c5cnn(C)c5)ccc4cn3)ccn2)CC1 get with 996289-038-R-J1-PDC complex spheroid viability?
0.6%

Form entry - test system: 996289-038-R-J1-PDC complex spheroid viability; read-out: viability, T/C; molecule: COc1cccc2c1C(=O)c1c(O)c3c(c(O)c1C2=O)CC(O)(C(=O)CO)CC3OC1CC(N)C(O)C(C)O1 (stereo unspecified) + CNC(=O)c1ccc(Nc2nc(OC3CCCC3)c3c(-c4ccc5nc(C)oc5c4)c[nH]c3n2)c(OC)c1
8.69%

Please tell me: viability, T/C of CC1(C)CCC(CN2CCN(c3ccc(C(=O)NS(=O)(=O)c4ccc(NCC5CCOCC5)c([N+](=O)[O-])c4)c(Oc4cnc5[nH]ccc5c4)c3)CC2)=C(c2ccc(Cl)cc2)C1 + CNC(=O)c1ccc(Nc2nc(OC3CCCC3)c3c(-c4ccc5nc(C)oc5c4)c[nH]c3n2)c(OC)c1 , system 996289-038-R-J1-PDC complex spheroid viability?
81.3%

Recorded viability, T/C for CC(CO)NC(=O)c1cc(-c2ccc(Cl)cc2)nn(-c2cnn(C)c2)c1=O (stereo unspecified) + CNC(=O)c1ccc(Nc2nc(OC3CCCC3)c3c(-c4ccc5nc(C)oc5c4)c[nH]c3n2)c(OC)c1 with 996289-038-R-J1-PDC complex spheroid viability, please?
55.5%

Find the measured viability, T/C: item Nc1ccn(C2OC(CO)C(O)C2(F)F)c(=O)n1 (stereo unspecified) + CN1CCN(c2cc(C(=O)Nc3cc4cc(-c5cnn(C)c5)ccc4cn3)ccn2)CC1 , target or system 996289-038-R-J1-PDC complex spheroid viability.
0.37%

For 996289-038-R-J1-PDC complex spheroid viability, provide viability, T/C of Nc1ccn(C2OC(CO)C(O)C2(F)F)c(=O)n1 (stereo unspecified) + CNC(=O)c1ccc(Nc2nc(OC3CCCC3)c3c(-c4ccc5nc(C)oc5c4)c[nH]c3n2)c(OC)c1 please.
46.9%

====

For each record, write down the corresponding viability, T/C.
Tested on: 996289-038-R-J1-PDC complex spheroid viability
PROCEDURE_DETAILS: Anticancer human tumor 996289-038-R-J1-PDC cell line growth inhibition [CLK];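 also: spheroids exposed to the agents for 7 days before readout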
ASSAY_CONDITIONS: second compound 0.316 µM; first compound 0.316 µM; active compounds read low
Hi! Could you send only the number? It should be in %, unit omitted.

Record request: viability, T/C value, item C=C(F)C(=O)N1CCN(c2nc(OCC3CCCN3C)nc3c2CCN(c2cccc4cccc(Cl)c24)C3)CC1CC#N (stereo not given) + CNC(=O)c1ccc(Nc2nc(OC3CCCC3)c3c(-c4ccc5nc(C)oc5c4)c[nH]c3n2)c(OC)c1
72.6

# input molecule: COc1cccc2c1C(=O)c1c(O)c3c(c(O)c1C2=O)CC(O)(C(=O)CO)CC3OC1CC(N)C(O)C(C)O1 (stereo not given) + CN1CCN(c2cc(C(=O)Nc3cc4cc(-c5cnn(C)c5)ccc4cn3)ccn2)CC1 ; wanted: its viability, T/C
42.1

Consider the molecule COC1C=CCC(C)C(C)S(=O)(=O)NC(=O)c2ccc3c(c2)N(CC2CCC21)CC1(CCCc2cc(Cl)ccc21)CO3 (stereo not given) + CNC(=O)c1ccc(Nc2nc(OC3CCCC3)c3c(-c4ccc5nc(C)oc5c4)c[nH]c3n2)c(OC)c1 and give its measured viability, T/C.
74.3

Fill blank: measured viability, T/C of the molecule C=CC(=O)N1CCN(c2nc(=O)n(-c3c(C)ccnc3C(C)C)c3nc(-c4c(O)cccc4F)c(F)cc23)C(C)C1 (stereo not given) + CN1CCN(c2cc(C(=O)Nc3cc4cc(-c5cnn(C)c5)ccc4cn3)ccn2)CC1 is ____.
74.2

Name the reported viability, T/C value associated with the molecule Nc1ccccc1NC(=O)c1ccc(CNC(=O)OCc2cccnc2)cc1 + CN1CCN(c2cc(C(=O)Nc3cc4cc(-c5cnn(C)c5)ccc4cn3)ccn2)CC1
64.3

I'd like to know its viability, T/C. The molecule in question is CC(=O)O[C@H]1C(=O)[C@@]2(C)[C@H]([C@H](OC(=O)c3ccccc3)[C@]3(O)C[C@H](OC(=O)[C@H](O)[C@@H](NC(=O)c4ccccc4)c4ccccc4)C(C)=C1C3(C)C)[C@]1(OC(C)=O)CO[C@@H]1C[C@@H]2O + CNC(=O)c1ccc(Nc2nc(OC3CCCC3)c3c(-c4ccc5nc(C)oc5c4)c[nH]c3n2)c(OC)c1
65.6

Which viability, T/C value is on record for CC(CO)NC(=O)c1cc(-c2ccc(Cl)cc2)nn(-c2cnn(C)c2)c1=O (stereo not given) + CNC(=O)c1ccc(Nc2nc(OC3CCCC3)c3c(-c4ccc5nc(C)oc5c4)c[nH]c3n2)c(OC)c1 ?
73.2

Need viability, T/C of O=c1[nH]cc(F)c(=O)[nH]1 + CN1CCN(c2cc(C(=O)Nc3cc4cc(-c5cnn(C)c5)ccc4cn3)ccn2)CC1 , thanks.
56.8

So what's the measured viability, T/C for this one? COc1c(OCCCN2CCOCC2)ccc2c3n(c(=NC(=O)c4cnc(N)nc4)nc12)CCN3 + CNC(=O)c1ccc(Nc2nc(OC3CCCC3)c3c(-c4ccc5nc(C)oc5c4)c[nH]c3n2)c(OC)c1
22.9

// viability, T/C lookup, key: O=C(c1cc(Cc2n[nH]c(=O)c3ccccc23)ccc1F)N1CCN(C(=O)C2CC2)CC1 + CN1CCN(c2cc(C(=O)Nc3cc4cc(-c5cnn(C)c5)ccc4cn3)ccn2)CC1
73.4
